Assay Details: E. coli growth modulation, two-sided OD650, primary screen, E. coli filamentation project, strain DRC41, 24 h (AID 1093);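 further: MC1000 strain lacking acrAB efflux and sulA so SOS filamentation is blocked; test concentration not given here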
Stated Conditions: OD650, 24 h, higher = more signal, called active from +8 up or from −8 down
Tag: satisfied if measured z-score is not below -0.3, not satisfied if it is.

Molecule	Label
CCOC(=O)C1=CCC(c2cccn2C(=O)OC(C)(C)C)N(S(=O)(=O)c2ccc(C)cc2)C1 (centres undefined)	satisfied
C=CC[C@]1(C(=O)NCC(O)CO)N=C(c2ccc(OCCCO)cc2)O[C@H]1c1ccccc1CN=[N+]=[N-] (some centres undefined)	satisfied
COCCOC(=O)N1C(=O)[C@@]2(c3cc(C#CCNC(N)=O)ccc31)[C@H](C(N)=O)[C@H]1C(=O)O[C@H](c3ccccc3)[C@H](c3ccccc3)N1[C@@H]2c1ccc(O)cc1	satisfied
CN1C(=O)C2C=CC(C(O)COCc3ccccc3)N(Nc3ccc([N+](=O)[O-])cc3[N+](=O)[O-])C2C1=O (centres undefined)	satisfied
COc1ccc([Si](C)(C)[C@H]2[C@H](CCO)O[C@@]3(C(=O)N(Cc4ccccc4)c4ccc(NC(=O)[C@H](C)O)cc43)[C@@H]2C)cc1	satisfied
O=C1O[C@H](c2ccccc2)[C@H](c2ccccc2)N2[C@H]1[C@@H](C(=O)O)[C@]1(C(=O)Nc3ccc(C#CC4(O)CCCCCC4)cc31)[C@H]2c1ccccc1OCCO	satisfied
CC(C)(C)OC(=O)CC[C@]1(C(=O)N2CCOCC2)COC(c2ccc(OCCCO)cc2)=N1	satisfied
CCOC(=O)C[C@H]1[C@H](OC(=O)c2ccc(-c3ccccc3)cc2)[C@@H](NC(=O)c2ccc(-c3ccccc3)cc2)c2cc(OCCCO)ccc2N1C(=O)c1ccccc1	not satisfied
Cc1ccc(S[C@]2(C(=O)NC(C)C)CC(=O)N(Cc3ccccc3)[C@@H]2c2ccc(CO)cc2I)cc1	satisfied
CN(C)CCCCCCNC(=O)[C@@H]1C[C@@H]2C(=O)N[C@@H](CCCC[N+](C)(C)C)C(=O)N2[C@@H]1c1cccc(OCCO)c1	satisfied
CCCCC=C[C@@H](NC(=O)C(C)(C)C)c1ccccc1	not satisfied
C=CCNC(=O)[C@@H]1[C@H]2C(=O)O[C@H](c3ccccc3)[C@H](c3ccccc3)N2[C@H](c2ccc(O)cc2)[C@@]12C(=O)N(C(=O)OCCOC)c1ccc(C#CCC(C(=O)OC)C(=O)OC)cc12	satisfied
CC(=O)NCCCC[C@@H]1NC(=O)[C@H]2C[C@@H](C(=O)NCCCCCN)[C@@H](c3ccc(O)cc3)N2C1=O	not satisfied
CN1C(=O)C2C=CC(C(O)c3ccc(I)cc3)N(N(c3ccccc3)c3ccccc3)C2C1=O (centres undefined)	not satisfied
COc1ccc(C(=O)Nc2cccc(CN3C(=O)[C@]4(O[C@H](CC(=O)N(CCO)Cc5ccccc5)[C@@H]([Si](C)(C)c5ccc(OC)cc5)[C@@H]4C)c4ccccc43)c2)cc1	satisfied
CN1C2C=C(c3ccc(CO)cc3)C(C3C(=O)N(C(N)=O)C(=O)C32)C1C1CC1 (centres undefined)	satisfied
CC[C@H]1C2=C3C(CC[C@H]4C(OCc5ccc(F)cc5C(F)(F)F)OC[C@](C)([C@@H]34)N(C(=O)OC(C)(C)C)C2)C(COC(C)=O)C1COC(C)=O (some centres undefined)	not satisfied
C=C(COC)C(=O)CC[C@H](OC(C)=O)c1ccccc1OCCO	satisfied
CCCC=C(CCC)[C@@H](NC(=O)c1ccc(C(=O)OC)cc1)c1ccc(C(=O)OC)cc1	not satisfied

----------
Assay Details: E. coli acrAB mutant growth effects, primary screen, E. coli filamentation inducers, strain DRC39, OD650, 24 h (AID 1178);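 further: growth measured as culture turbidity by optical density at 650 nm; test concentration not given here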
Stated Conditions: higher = more signal, called active from +8 up or from −8 down
z-score for assorted molecules
Reported Endpoint: z-score

Molecule	Reported Endpoint	Numeric Result
CC(=O)NCCCC[C@@H]1NC(=O)[C@H]2C[C@@H](C(=O)NCCCCCN)[C@@H](c3ccc(O)cc3)N2C1=O	z-score	-0.496
C=CC[C@]1(C(N)=O)N=C(c2ccc(OCCCO)cc2)O[C@H]1c1ccccc1N=[N+]=[N-]	z-score	2.12
CN(C)CCCC[C@@H]1NC(=O)[C@H]2C[C@@H](C(=O)NCCCCCCNC(=O)CS)[C@@H](c3cccc(OCCO)c3)N2C1=O	z-score	0.329
C=CCOC(=O)[C@H]1[C@@H]2C(=O)O[C@@H](c3ccccc3)[C@@H](c3ccccc3)N2[C@@H](c2ccc(OCCOC(=O)[C@H]3C[C@H]4C(=O)NCC(=O)N4[C@H]3c3ccc(O)cc3)cc2)[C@]12C(=O)Nc1ccccc12	z-score	0.504
COC(=O)[C@@]1(Cc2ccccc2)[C@H]2c3cc(C(=O)N(C)C)n(Cc4ccc(Cl)c(C(F)(F)F)c4)c3C[C@H]2CN1C(=O)c1ccccc1	z-score	-1.4
CCCCCCc1nc(Cc2cc(OC)c(OC)c(OC)c2)c(C)c2c1[Si](C(C)C)(C(C)C)OC2	z-score	1.4
COCCCNC(=O)[C@]1(Cc2ccccc2N=[N+]=[N-])N=C(c2ccc(OCCCO)cc2)O[C@@H]1c1ccccc1	z-score	2.99
COC(=O)[C@@]1(Cc2ccc(F)cc2)[C@H]2c3cc(C(=O)N4CCCC4)n(C[C@H](O)CO)c3C[C@H]2CN1C(=O)c1ccccc1	z-score	-0.645
CO[C@H]1O[C@H](CO)[C@@H](OC(=O)Nc2cccc(F)c2)[C@H](OC(=O)c2cc3ccccc3[nH]2)[C@H]1OC(=O)c1cc2ccccc2[nH]1	z-score	0.181
CC1CC/C=C\[C@H]2OC34C=CCN(CCN5CCOCC5)C(=O)[C@H]3N(C(CO)C(C)C)C(=O)[C@@H]4C2C(=O)O1 (stereo partly specified)	z-score	0.332
C=CC[C@@]1(C(=O)NCCCOC)N=C(c2ccc(OCCCO)cc2)O[C@@H]1c1ccccc1CN=[N+]=[N-]	z-score	0.914
C=C(CCCC)/C(=C/C[C@@H](OC(C)=O)c1ccc(OCCO)cc1)c1cc(C(=O)OC)ccc1OC	z-score	0.173
COCCOC(=O)N1C(=O)[C@@]2(c3cc(C#CCNC(N)=O)ccc31)[C@H](C(N)=O)[C@H]1C(=O)O[C@H](c3ccccc3)[C@H](c3ccccc3)N1[C@@H]2c1ccc(O)cc1	z-score	0.769
COc1ccc([Si](C)(C)[C@H]2[C@H](CCO)O[C@@]3(C(=O)N(Cc4ccccc4)c4ccc(NC(=O)[C@H](C)O)cc43)[C@@H]2C)cc1	z-score	1.23
C=CC[C@]1(C(=O)NCC(O)CO)N=C(c2ccc(OCCCO)cc2)O[C@H]1c1ccccc1CN=[N+]=[N-] (stereo partly specified)	z-score	-0.363
COc1ccc([Si](C)(C)[C@@H]2[C@@H](CC(=O)N(CCO)Cc3ccccc3)O[C@]3(C(=O)N(Cc4cccc(I)c4)c4ccccc43)[C@H]2C)cc1	z-score	-0.335
CS(=O)(=O)CCOC(=O)C1=CC(CCCO)=CC(C2CC2)N(Cc2sc3ccccc3c2Cl)C=C1C(=O)OCCS(C)(=O)=O (stereo unspecified)	z-score	0.564
O=C1C2C=CC(C(O)C3CCCCC3)N(Nc3ccccc3F)C2C(=O)N1c1ccccc1 (stereo unspecified)	z-score	0.221
COc1ccc([Si](C)(C)[C@H]2[C@H](CC(=O)N3CCC[C@H]3CO)O[C@@]3(C(=O)N(C)c4c(Br)cc(C)cc43)[C@@H]2C)cc1	z-score	0.541
COC(=O)[C@@]1(Cc2ccc(OC)cc2)[C@@H]2[C@@H](CC(=O)[C@H]2CC(=O)C(=O)N(C)C)CN1C(=O)c1ccccc1	z-score	0.243
C=CCOC(=O)[C@@H]1[C@H]2C(=O)O[C@H](c3ccccc3)[C@H](c3ccccc3)N2[C@H](c2ccc(OCCOC(=O)[C@H]3C[C@H]4C(=O)N[C@@H](CCCCN(C)C)C(=O)N4[C@H]3c3cccc(OCCO)c3)cc2)[C@@]12C(=O)Nc1ccccc12	z-score	0.292
CCOC(=O)C1=CCC(c2cccn2C(=O)OC(C)(C)C)N(S(=O)(=O)c2ccc(C)cc2)C1 (stereo unspecified)	z-score	-0.484
OCCCc1cc[n+](Cc2cc3c(cc2Br)OCO3)cc1	z-score	0.311
O=C1C2C=CC(C(O)c3ccccn3)N(Nc3ccc([N+](=O)[O-])cc3)C2C(=O)N1c1ccccc1 (stereo unspecified)	z-score	-0.63
COc1cc2c(cc1O)C(C)N(Cc1sc3ccccc3c1Cl)CC2 (stereo unspecified)	z-score	1.14
COC(=O)[C@]1(Cc2ccccc2N=[N+]=[N-])N=C(c2ccc(OCCCO)cc2)O[C@@H]1c1ccccc1CN=[N+]=[N-]	z-score	-0.307

----------
z-score for assorted molecules
Assay Details: basal RPMI8226 viability, no added stimulus, profiling panel, cell-based, calcein-AM fluorescence, 48 h, PK04 Diversity Set (AID 1166);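 further: cells grown under basal conditions without added stimulus; test concentration not given here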
Stated Conditions: RPMI8226 myeloma viability, higher = more signal
Reported Endpoint: z-score

> print(dat)
                                   molecule  reported.endpoint  numeric.result
1  C=C(COC)/C(=C/C[C@@H](OC(C)=O)c1cccc(OCCO)c1)c1cnc2ccccc2c1            z-score          -0.461
2  COC(=O)[C@@]1(Cc2ccc(OC)cc2)[C@H]2c3cc(C(=O)N(C)C)n(Cc4c(CO)[nH]cc(C)c4=O)c3C[C@H]2CN1C(=O)c1ccccc1            z-score          -0.411
3  COc1ccc(C(O)C2C=CC3C(=O)N(c4ccccc4)C(=O)C3N2Nc2ccccc2F)c2ccccc12 (centres undefined)            z-score           -1.61
4     CCCCC=C[C@@H](NC(=O)C(C)(C)C)c1ccccc1            z-score           -4.72

Each recorded value in this set is attributed to PubChem BioAssay.
